Assay: self-splicing fitness, log relative to wild type (ln ratio); higher = more splicing; Tetrahymena group I intron in knt gene, E. coli kanamycin selection, DiMSum; sequences stand for … in CUCUCU…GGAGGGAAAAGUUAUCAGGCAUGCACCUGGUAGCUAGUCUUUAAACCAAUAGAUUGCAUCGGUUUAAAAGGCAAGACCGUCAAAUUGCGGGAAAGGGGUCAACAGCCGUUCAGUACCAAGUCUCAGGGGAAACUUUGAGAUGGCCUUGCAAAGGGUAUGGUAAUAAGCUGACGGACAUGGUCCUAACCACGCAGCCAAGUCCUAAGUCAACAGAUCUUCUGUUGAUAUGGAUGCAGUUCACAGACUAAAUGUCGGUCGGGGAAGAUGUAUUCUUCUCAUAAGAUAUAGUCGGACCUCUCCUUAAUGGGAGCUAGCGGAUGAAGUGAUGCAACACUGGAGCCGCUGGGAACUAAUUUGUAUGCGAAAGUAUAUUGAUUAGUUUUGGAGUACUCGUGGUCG;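 further: selection with 25 µg/mL kanamycin versus none on LB agar overnight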
Conditions: 37 °C
Property: self-splicing fitness (ln)
Keep the answer to the number alone.

(Q) Which self-splicing fitness (ln) is listed for CCAAAGCAAUAUUACGCACU ?
(A) -2.75

(Q) Reported self-splicing fitness (ln) for CCCUAGCAAUAUUACGGGCG : what is it?
(A) -0.597

(Q) What value of self-splicing fitness (ln) has been reported for the following sequence? CAUCAGCAAUAUUACGGACC
(A) -0.899

(Q) self-splicing fitness (ln) lookup needed for CGCUAGCAAUAUUACGGCGU , thanks.
(A) -2.71

(Q) So what does the record say about self-splicing fitness (ln) for AUUCAGCAAUAUUACGUAAG ?
(A) -0.22

(Q) Returns the measured self-splicing fitness (ln) for the input sequence. Input: GUUCAGCAAUAUUACGUCUC
(A) 0.216

(Q) Sample AUCUAGCAAUAUUACGCCAG — what was its self-splicing fitness (ln)?
(A) -2.17

(Q) Fill in the blank: the reported self-splicing fitness (ln) of GUGCAGCAAUAUUACGACAC is ____.
(A) -0.906

(Q) Please give the measured self-splicing fitness (ln) for this sequence: UACUAGCAAUAUUACGCUCU
(A) -0.262

(Q) Given the sequence AGAGAGCAAUAUUACGAAUC , what is its reported self-splicing fitness (ln)?
(A) -2.06

(Q) Reported self-splicing fitness (ln) for AUGGAGCAAUAUUACGCUAA : what is it?
(A) -1.32

(Q) Requested field: self-splicing fitness (ln). Item: ACAGAGCAAUAUUACGCGGC
(A) -2.18

(Q) Please give the measured self-splicing fitness (ln) for this sequence: GACGAGCAAUAUUACGCCAA
(A) -0.956

(Q) For AGGCAGCAAUAUUACGGUAC , what is its reported self-splicing fitness (ln)?
(A) -2.65

(Q) // returns reported self-splicing fitness (ln) for input AUCGAGCAAUAUUACGGCUU
(A) -2.58

(Q) What does the data say about its self-splicing fitness (ln)? Entry: AGCAAGCAAUAUUACGGAUC
(A) -1.08

(Q) Item under review: GAAAAGCAAUAUUACGAAGC . Reported self-splicing fitness (ln)?
(A) -2.65

(Q) GET /values?readout=self-splicing fitness (ln)&item= GGCAAGCAAUAUUACGGGAA
(A) -1.16

(Q) Requested read-out: self-splicing fitness (ln). Entry: ACACAGCAAUAUUACGCGAU
(A) -2.02

(Q) Look up self-splicing fitness (ln) for this sequence: GGAGAGCAAUAUUACGGUUG
(A) -2.05

(Q) Item AUACAGCAAUAUUACGAACG has what recorded self-splicing fitness (ln)?
(A) -1.44

(Q) Consider the sequence GUAGAGCAAUAUUACGGUUG and give its measured self-splicing fitness (ln).
(A) -1.13

(Q) Please report the recorded self-splicing fitness (ln) for GGAUAGCAAUAUUACGGCAC .
(A) -0.0176

(Q) Item under review: AAUCAGCAAUAUUACGGCAA . Reported self-splicing fitness (ln)?
(A) 0.747

(Q) self-splicing fitness (ln) for GAUAAGCAAUAUUACGAUAA ?
(A) 0.344

(Q) Name the reported self-splicing fitness (ln) value associated with the sequence CCAAAGCAAUAUUACGCAUU
(A) -3.55

(Q) Dear colleague, I am looking for the recorded self-splicing fitness (ln) of the following sequence: CGGGAGCAAUAUUACGUUUA
(A) -1.8

(Q) Bench note: what self-splicing fitness (ln) did GUCCAGCAAUAUUACGGCGG show?
(A) -1.4

(Q) Given the sequence CAGAAGCAAUAUUACGACAA , what is its reported self-splicing fitness (ln)?
(A) -1.88

(Q) Which value of self-splicing fitness (ln) has been reported for CUCAAGCAAUAUUACGUCUC in the records?
(A) -0.263

Numbers sourced from the supplement of paper PMC7877785.
